Tested on: MCF7 breast
Test: NCI tumour cell line growth inhibition, 48 h

[
  {
    "Molecule": "COc1cc(Nc2nc3ccccc3nc2NS(=O)(=O)c2ccc(NC(=O)c3ccc(C)c(OC)c3)cc2)cc(OC)c1",
    "TGI": "> 100 µM"
  },
  {
    "Molecule": "C=CC1CCC[N+]1(CC(=O)OCC)Cc1ccccc1 (centres undefined)",
    "TGI": "> 100 µM"
  },
  {
    "Molecule": "O=C1NC(=O)C(c2ccccc2Cl)=C1Nc1cc(Cl)c(O)c(Cl)c1",
    "TGI": "> 25 µM"
  },
  {
    "Molecule": "O=C(CC(C(=O)c1cccs1)c1cccs1)c1ccsc1 (centres undefined)",
    "TGI": "> 100 µM"
  },
  {
    "Molecule": "COC(=O)[C@]12CC[C@H]3CC[C@H]([C@H]31)[C@H](c1ccccc1)N2",
    "TGI": "31.2 µM"
  },
  {
    "Molecule": "C=C1C(C2(C)C(OC(C)=O)CC(=O)OC(C)(COC(C)=O)C2CC(=O)OC)C(OC=O)C(OC(=O)C(O)C(C)CC)C2(C)C(c3ccoc3)CC(=O)C12O (centres undefined)",
    "TGI": "> 100 µM"
  },
  {
    "Molecule": "Clc1nssc1=Nc1nonc1-c1ccccc1",
    "TGI": "> 100 µM"
  },
  {
    "Molecule": "COc1ccc(-c2cc(-c3cccn3C)c(C#N)c(=O)[nH]2)cc1OC",
    "TGI": "> 100 µM"
  },
  {
    "Molecule": "CC1=NN(c2cccc(Cl)c2)C2(SCC(=O)N2c2nc3ccccc3s2)/C1=C\\c1ccc(N(C)C)cc1 (centres undefined)",
    "TGI": "> 100 µM"
  }
]
